Target: T1, 4H2947-AA
T1 chain: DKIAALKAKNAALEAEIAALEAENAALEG
Test: two-hybrid library CCmax;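 further: natural log of median RNA to DNA barcode read ratio; higher means stronger binding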
Conditions: mean of both orientations
Quantity measured: interaction score

{"Binder": "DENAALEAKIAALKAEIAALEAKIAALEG [4H1349-AA]", "interaction score": -1.49}
{"Binder": "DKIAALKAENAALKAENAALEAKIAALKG [4H2774-AA]", "interaction score": -1.7}
{"Binder": "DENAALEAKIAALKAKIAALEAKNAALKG [4H1384-AA]", "interaction score": -1.05}
{"Binder": "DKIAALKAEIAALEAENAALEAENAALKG [4H2580-AA]", "interaction score": -1.82}
{"Binder": "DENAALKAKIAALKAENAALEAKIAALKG [4H1878-AA]", "interaction score": -0.843}

I = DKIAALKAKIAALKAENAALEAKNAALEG [4H2903-AA]
II = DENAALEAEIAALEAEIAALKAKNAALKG [4H1040-AA]
Qu. When I and II are compared, which has the higher number for interaction score? // respond with label for picked entry
Ans. II

1 = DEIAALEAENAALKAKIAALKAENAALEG [4H235-AA]
2 = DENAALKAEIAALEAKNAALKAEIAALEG [4H1593-AA]
3 = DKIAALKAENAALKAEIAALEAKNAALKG [4H2760-AA]
Qu. Ascending by interaction score, please: list the binders accordingly. Answer format: list of labels, ordered as asked.
Ans. 2, 1, 3
